# Tested on: Shigella sonnei KY4281 ATCC9290
# Assay summary: MIC, agar dilution method, pH 8.0
# Format: cell-based
# Assay setup: ATCC9290; pH 8.0; Shigella sonnei KY4281; read-out: Minimum inhibition concentration (MIC), SS
Measure name: MIC (µg/mL)
Output spec: scalar in µg/mL, unitless text.

CCCCN(C)[C@H]1[C@@H](O)[C@H](O[C@H]2O[C@H]([C@H](C)N)CC[C@H]2N)[C@@H](N)[C@H](O)[C@@H]1OC [Compound 18, 4-N-(n-butyl)fortimicin B] :: 25
CO[C@H]1[C@@H](O)[C@H](N)[C@@H](O[C@H]2O[C@H]([C@H](C)N)CC[C@H]2N)[C@H](O)[C@@H]1N(C)C(=O)[C@@H](O)CCN [Compound 14] :: 20
CO[C@H]1[C@@H](O)[C@H](N)[C@@H](O[C@H]2O[C@H]([C@H](C)N)CC[C@H]2N)[C@H](O)[C@@H]1N(C)CCCN [Compound 20, 4-N-(3-aminopropyl)fortimicin B] :: 20

Name the reported MIC value associated with the molecule CO[C@H]1[C@@H](O)[C@H](N)[C@@H](O[C@H]2O[C@H]([C@H](C)N)CC[C@H]2N)[C@H](O)[C@@H]1N(C)C[C@@H](O)CCN [Compound 27]
1.25

====

# System: Pseudomonas aeruginosa BMH# 1
# Assay summary: MIC, agar dilution method, pH 7.2
# Type: cell-based
# Assay setup: pH 7.2; Pseudomonas aeruginosa BMH# 1; read-out: Minimum inhibition concentration (MIC)
Measure name: MIC (µg/mL)
Output spec: scalar in µg/mL, unitless text.

Here is how some compounds turned out for MIC.
CO[C@H]1[C@@H](O)[C@H](N)[C@@H](O[C@H]2O[C@H]([C@H](C)N)CC[C@H]2N)[C@H](O)[C@@H]1N(C)C(=O)CO [Compound 4, 4-N-glycolylfortimicin B] :: 50
CO[C@H]1[C@@H](O)[C@H](N)[C@@H](O[C@H]2O[C@H]([C@H](C)N)CC[C@H]2N)[C@H](O)[C@@H]1N(C)C(=O)CNC(N)=O [Compound 3, 4-N-hydantoylfortimicin B, reference compound] :: 100
CO[C@H]1[C@@H](O)[C@H](N)[C@@H](O[C@H]2O[C@H]([C@H](C)N)CC[C@H]2N)[C@H](O)[C@@H]1N(C)CCN [Compound 15, 4-N-(2-aminoethyl)fortimicin B] :: 12.5

Name the reported MIC value associated with the compound CO[C@H]1[C@@H](O)[C@H](N)[C@@H](O[C@H]2O[C@H]([C@H](C)N)CC[C@H]2N)[C@H](O)[C@@H]1N(C)CC(O)CCN (stereo partly drawn) [Compound 29]
12.5

Name the reported MIC value associated with the compound CNCC[C@H](O)CN(C)[C@H]1[C@@H](O)[C@H](O[C@H]2O[C@H]([C@H](C)N)CC[C@H]2N)[C@@H](N)[C@H](O)[C@@H]1OC [Compound 28]
12.5

====

# Test system: Bacillus subtilis KY4273
# Assay summary: MIC, agar dilution method, pH 8.0
# Format: cell-based
# Assay setup: pH 8.0; Bacillus subtilis KY4273; read-out: Minimum inhibition concentration (MIC), BS
Parameter: MIC. Scope: all listed entries.
Output spec: scalar in µg/mL, unitless text.

Here is how some compounds turned out for MIC.
CO[C@H]1[C@@H](O)[C@H](N)[C@@H](O[C@H]2O[C@H]([C@H](C)N)CC[C@H]2N)[C@H](O)[C@@H]1N(C)C(=O)[C@@H](O)CCN :: 5
CO[C@H]1[C@@H](O)[C@H](N)[C@@H](O[C@H]2O[C@H]([C@H](C)N)CC[C@H]2N)[C@H](O)[C@@H]1N(C)CCN :: 0.16
CCCCCN(C)[C@H]1[C@@H](O)[C@H](O[C@H]2O[C@H]([C@H](C)N)CC[C@H]2N)[C@@H](N)[C@H](O)[C@@H]1OC :: 200
CNCC[C@H](O)CN(C)[C@H]1[C@@H](O)[C@H](O[C@H]2O[C@H]([C@H](C)N)CC[C@H]2N)[C@@H](N)[C@H](O)[C@@H]1OC :: 0.04
CO[C@H]1[C@@H](O)[C@H](N)[C@@H](O[C@H]2O[C@H]([C@H](C)N)CC[C@H]2N)[C@H](O)[C@@H]1N(C)C[C@@H](O)CCN :: 0.04

Give Bacillus subtilis KY4273 MIC for `CO[C@H]1[C@@H](O)[C@H](N)[C@@H](O[C@H]2O[C@H]([C@H](C)N)CC[C@H]2N)[C@H](O)[C@@H]1N(C)CCCN`
2.5

Give Bacillus subtilis KY4273 MIC for CNCCC(O)CN(C)[C@H]1[C@@H](O)[C@H](O[C@H]2O[C@H]([C@H](C)N)CC[C@H]2N)[C@@H](N)[C@H](O)[C@@H]1OC (stereo partly shown)
0.02

Give Bacillus subtilis KY4273 MIC for CO[C@H]1[C@@H](O)[C@H](N)[C@@H](O[C@H]2O[C@H]([C@H](C)N)CC[C@H]2N)[C@H](O)[C@@H]1N(C)CC(O)CCN (stereo partly shown)
0.04

Give Bacillus subtilis KY4273 MIC for `CO[C@H]1[C@@H](O)[C@H](N)[C@@H](O[C@H]2O[C@H]([C@H](C)N)CC[C@H]2N)[C@H](O)[C@@H]1N(C)C(C)=O`
50

Give Bacillus subtilis KY4273 MIC for CO[C@H]1[C@@H](O)[C@H](N)[C@@H](O[C@H]2O[C@H]([C@H](C)N)CC[C@H]2N)[C@H](O)[C@@H]1N(C)C(=O)CNC(N)=O [Compound 3, 4-N-hydantoylfortimicin B, reference compound]
0.32

Give Bacillus subtilis KY4273 MIC for `CCCCC(=O)N(C)[C@H]1[C@@H](O)[C@H](O[C@H]2O[C@H]([C@H](C)N)CC[C@H]2N)[C@@H](N)[C@H](O)[C@@H]1OC`
25

Give Bacillus subtilis KY4273 MIC for `CCCCN(C)[C@H]1[C@@H](O)[C@H](O[C@H]2O[C@H]([C@H](C)N)CC[C@H]2N)[C@@H](N)[C@H](O)[C@@H]1OC`
25

Give Bacillus subtilis KY4273 MIC for `CNC[C@H](O)CN(C)[C@H]1[C@@H](O)[C@H](O[C@H]2O[C@H]([C@H](C)N)CC[C@H]2N)[C@@H](N)[C@H](O)[C@@H]1OC`
0.63

Give Bacillus subtilis KY4273 MIC for `CO[C@H]1[C@@H](O)[C@H](N)[C@@H](O[C@H]2O[C@H]([C@H](C)N)CC[C@H]2N)[C@H](O)[C@@H]1N(C)C(=O)CCCN`
0.16

Give Bacillus subtilis KY4273 MIC for `CCC(=O)N(C)[C@H]1[C@@H](O)[C@H](O[C@H]2O[C@H]([C@H](C)N)CC[C@H]2N)[C@@H](N)[C@H](O)[C@@H]1OC`
50

Give Bacillus subtilis KY4273 MIC for `CO[C@H]1[C@@H](O)[C@H](N)[C@@H](O[C@H]2O[C@H]([C@H](C)N)CC[C@H]2N)[C@H](O)[C@@H]1N(C)C[C@@H](O)CN`
0.32
